The variants listed here are annotated with their polymerase ribozyme fitness (log ratio).
B1: TPR 5TU (parent)
chain: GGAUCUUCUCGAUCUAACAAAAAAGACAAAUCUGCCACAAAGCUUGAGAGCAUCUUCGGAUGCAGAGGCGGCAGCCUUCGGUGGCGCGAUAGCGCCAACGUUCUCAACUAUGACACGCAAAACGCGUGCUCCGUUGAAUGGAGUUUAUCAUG

Variants of: B1
Test: polymerase ribozyme fitness, log enrichment relative to wild type (log ratio); higher = more active; in vitro selection for triplet polymerase activity
This sample holds only a part of the variants without activity.

Completed entries (count: 8):
{"columns": ["Mutation Name", "polymerase ribozyme fitness (log ratio)"],
 "data": [
  ["A20U C57U A66U C95A U102C G141A U145G", "≤ -4.2"],
  ["U9G A29C G59A C76U C87G A120C", "≤ -4.2"],
  ["C10G U77A C93U U144G", "≤ -4.2"],
  ["C108A G124U G140C", "≤ -4.2"],
  ["A39C G65C G83C G143A A150U", "≤ -4.2"],
  ["A40G G70C C85A", "≤ -4.2"],
  ["A23U A26C A30U U56A A60C G86U G88C C95G G124U A137U U148C", "≤ -4.2"],
  ["C32U G80U U102G A113U C125U G126A", "≤ -4.2"]
]}

Prompt: Which measured polymerase ribozyme fitness (log ratio) value corresponds to G48C G70A G88U C96G ?
Response: ≤ -4.2

Prompt: And the next one, C75G C96U A120C ?
Response: ≤ -4.2

Prompt: And the next one, A17U A41U G86U A113C ?
Response: ≤ -4.2

Prompt: And the next one, U45A A60G G94A C95G U144C U151G ?
Response: ≤ -4.2
